- Test system: HOP-62 NSCLC
- assay-details: NCI-60 one-dose screen, 48 h (100 = growth as untreated, 0 = no growth, -100 = all killed)
- condition-info: 10 µM unless noted
- Procedure: Growth inhibition of the HOP-62 human Non-Small Cell Lung tumor cell line is measured as a screen for anti-cancer activity. Cells are grown in 96 well plates and exposed to the test compound for 48 hours. Compounds are tested at a single concentration, which is 10^-5 M for most compounds. The reported endpoint is percent growth (GI% or GIPRCNT), where numbers from 0 - 100% represent growth inhibition, and numbers from -100% - 0 represent cell death. […]
This is part of a sample that, as a whole, favours compounds with a hit. Of some 83,000 tested, about 20% had one in any assay.
Classify: Satisfied when growth is strictly less than 50%; Not satisfied when growth is not.

molecule: Cc1ccccc1CNC(=O)C1CN(c2ccc(Cl)cc2)N(c2ccc(Cl)cc2)C1=O (stereo not given)
target: HOP-62 NSCLC
class: Not satisfied
//
molecule: COc1ccc2sc(N(Cc3cccnc3)C(=O)c3ccc(C#N)cc3)nc2c1
target: HOP-62 NSCLC
class: Not satisfied
//
molecule: O=c1oc2ccc(Br)cc2c(=O)n1-c1ccc(I)cc1F
target: HOP-62 NSCLC
class: Satisfied
//
molecule: COCCN(C(=O)Cc1cccs1)C(C(=O)NCc1ccc(OC)cc1)c1ccc(C(C)C)cc1 (stereo not given)
target: HOP-62 NSCLC
class: Not satisfied
//
molecule: Cn1cc([C@@H]2Nc3ccc4[nH]ncc4c3[C@H]3[C@H]4CCC(C4)[C@H]32)c(C(F)(F)F)n1
target: HOP-62 NSCLC
class: Not satisfied
//
molecule: CSc1nc2c(c(=O)[nH]1)N=C1c3ccccc3C(=O)C1C(c1ccccc1)N2 (stereo not given)
target: HOP-62 NSCLC
class: Satisfied
//
molecule: CCCC(=O)CC(C)=O.CCCC(=O)CC(C)=O.[Cu]
target: HOP-62 NSCLC
class: Not satisfied
//
molecule: O=c1c2cc(F)cc(Cl)c2sc2c(Cl)nc3ccccc3c12
target: HOP-62 NSCLC
class: Not satisfied
//
molecule: COc1cccc(-c2nn(C)c3sc(C(=O)NCCN4CCN(c5ccccc5F)CC4)cc23)c1
target: HOP-62 NSCLC
class: Not satisfied
//
molecule: N#C/C(=C\c1c(-c2ccccc2)[nH]c2ccccc12)S(=O)(=O)c1ccccc1
target: HOP-62 NSCLC
class: Satisfied
